# PROCEDURE_DETAILS: Approximate solubility, solvent addition method
# Format: physicochemical
# EXPERIMENTAL_CONTEXT: organic solvent or mixture, thermodynamic from solid; EtOAc (ethyl acetate), room temperature
ENDPOINT: solubility (mg/mL)
Please state the figure in mg/mL; there is no need to write the unit.

Entry under test: COC(=O)[C@]12CCC(C)(C)C[C@H]1[C@H]1C(=O)C=C3[C@@]4(C)C=C(C#N)C(=O)C(C)(C)[C@@H]4CC[C@@]3(C)[C@]1(C)CC2 . Its solubility was 36

====

# PROCEDURE_DETAILS: Stress experiments (physical stability under temperature, humidity, grinding; XRPD after stress)
# Format: physicochemical
# EXPERIMENTAL_CONTEXT: 80° C./P2O5, 28 d; micronized; Karl Fischer water
Reported KF Result after stress values for a set of compounds
Please state the figure in %; there is no need to write the unit.

[[record]]
compound = "COC(=O)[C@]12CCC(C)(C)C[C@H]1[C@H]1C(=O)C=C3[C@@]4(C)C=C(C#N)C(=O)C(C)(C)[C@@H]4CC[C@@]3(C)[C@]1(C)CC2 [FORM B PRODUCED BY ISOLATION FROM ETHYL ACETATE AND ETHANOL ]"
endpoint = "KF Result after stress"
unit_spec = "%"
quantitative_readout = 0.37


Shifting focus to the compound that follows.
Entry under test: COC(=O)[C@]12CCC(C)(C)C[C@H]1[C@H]1C(=O)C=C3[C@@]4(C)C=C(C#N)C(=O)C(C)(C)[C@@H]4CC[C@@]3(C)[C@]1(C)CC2 [FORM B PRODUCED VIA EXAMPLE 11 PROCEDURE] . Its KF Result after stress was 1.1

====

# PROCEDURE_DETAILS: Approximate solubility, solvent addition method
# Format: physicochemical
# EXPERIMENTAL_CONTEXT: organic solvent or mixture, thermodynamic from solid; MTBE (tert-butyl methyl ether), room temperature
ENDPOINT: solubility
In your response, put the unit directly after the numeric value.

Entry under test: COC(=O)[C@]12CCC(C)(C)C[C@H]1[C@H]1C(=O)C=C3[C@@]4(C)C=C(C#N)C(=O)C(C)(C)[C@@H]4CC[C@@]3(C)[C@]1(C)CC2 [CDDO methyl ester] . Its solubility was 4000 µg/mL

====

# PROCEDURE_DETAILS: Approximate solubility, solvent addition method
# Type: physicochemical
# EXPERIMENTAL_CONTEXT: organic solvent or mixture, thermodynamic from solid; EtOH (ethanol), room temperature
# Protocol: A weighed sample was treated with aliquots of the test solvent at room temperature. Complete dissolution of the test material was determined by visual inspection. Solubility was estimated based on the total solvent used to provide complete dissolution. The actual solubility may be greater than the value calculated because of the use of solvent aliquots that were too large or due to a slow rate of dissolution. […]
ENDPOINT: solubility (µg/mL)
Please state the figure in µg/mL; there is no need to write the unit.

Entry under test: COC(=O)[C@]12CCC(C)(C)C[C@H]1[C@H]1C(=O)C=C3[C@@]4(C)C=C(C#N)C(=O)C(C)(C)[C@@H]4CC[C@@]3(C)[C@]1(C)CC2 . Its solubility was 4000

====

# PROCEDURE_DETAILS: Approximate solubility, solvent addition method
# Format: physicochemical
# EXPERIMENTAL_CONTEXT: thermodynamic from solid; Water, room temperature
ENDPOINT: solubility

Entry under test: COC(=O)[C@]12CCC(C)(C)C[C@H]1[C@H]1C(=O)C=C3[C@@]4(C)C=C(C#N)C(=O)C(C)(C)[C@@H]4CC[C@@]3(C)[C@]1(C)CC2 [CDDO methyl ester] . Its solubility was < 100 µg/mL

====

# PROCEDURE_DETAILS: Approximate solubility, solvent addition method
# Assay type: physicochemical
# EXPERIMENTAL_CONTEXT: organic solvent or mixture, thermodynamic from solid; Hexanes, room temperature
ENDPOINT: solubility

Entry under test: COC(=O)[C@]12CCC(C)(C)C[C@H]1[C@H]1C(=O)C=C3[C@@]4(C)C=C(C#N)C(=O)C(C)(C)[C@@H]4CC[C@@]3(C)[C@]1(C)CC2 [CDDO methyl ester] . Its solubility was < 1000 µg/mL

====

# PROCEDURE_DETAILS: Approximate solubility, solvent addition method
# Format: physicochemical
# EXPERIMENTAL_CONTEXT: organic solvent or mixture, thermodynamic from solid; MeOH (methanol), room temperature
ENDPOINT: solubility (mg/mL)
Please state the figure in mg/mL; there is no need to write the unit.

Entry under test: COC(=O)[C@]12CCC(C)(C)C[C@H]1[C@H]1C(=O)C=C3[C@@]4(C)C=C(C#N)C(=O)C(C)(C)[C@@H]4CC[C@@]3(C)[C@]1(C)CC2 . Its solubility was 8

====

# PROCEDURE_DETAILS: Approximate solubility, solvent addition method
# Type: physicochemical
# EXPERIMENTAL_CONTEXT: organic solvent or mixture, thermodynamic from solid; Acetone, room temperature
ENDPOINT: solubility (mg/mL)
Please state the figure in mg/mL; there is no need to write the unit.

Entry under test: COC(=O)[C@]12CCC(C)(C)C[C@H]1[C@H]1C(=O)C=C3[C@@]4(C)C=C(C#N)C(=O)C(C)(C)[C@@H]4CC[C@@]3(C)[C@]1(C)CC2 [CDDO methyl ester] . Its solubility was 70

====

# PROCEDURE_DETAILS: Approximate solubility, solvent addition method
# Assay type: physicochemical
# EXPERIMENTAL_CONTEXT: organic solvent or mixture, thermodynamic from solid; DCM (dichloromethane), room temperature
ENDPOINT: solubility

Entry under test: COC(=O)[C@]12CCC(C)(C)C[C@H]1[C@H]1C(=O)C=C3[C@@]4(C)C=C(C#N)C(=O)C(C)(C)[C@@H]4CC[C@@]3(C)[C@]1(C)CC2 . Its solubility was > 194 mg/mL

====

# PROCEDURE_DETAILS: Approximate solubility, solvent addition method
# Assay type: physicochemical
# EXPERIMENTAL_CONTEXT: organic solvent or mixture, thermodynamic from solid; Toluene, room temperature
ENDPOINT: solubility (mg/mL)
Please state the figure in mg/mL; there is no need to write the unit.

Entry under test: COC(=O)[C@]12CCC(C)(C)C[C@H]1[C@H]1C(=O)C=C3[C@@]4(C)C=C(C#N)C(=O)C(C)(C)[C@@H]4CC[C@@]3(C)[C@]1(C)CC2 [CDDO methyl ester] . Its solubility was 38
